Taken from ChEMBL document CHEMBL4219160.

# experimental.target: Human immunodeficiency virus type 1 reverse transcriptase (Human immunodeficiency virus 1, UniProt Q72547, K103N/Y181C)
# measurement.description: Inhibition of HIV1 reverse transcriptase K103N/Y181C double mutant using poly (A)/oligo (dT)15 as template/primer assessed as decrease in biotin-dUTP incorporation after 1 hr by ELISA
quantity.name: IC50 (µM)
Numeric answer only, unit µM assumed.

For the compound Cc1cc(/C=C/C#N)cc(C)c1Oc1cc(NCC2CCCO2)nc(Nc2ccc(C#N)cc2)n1 (stereo not drawn) , give its reported IC50. 86.9

Identify measured IC50 associated with Cc1cc(/C=C/C#N)cc(C)c1Oc1cc(NCCN(C)C)nc(Nc2ccc(C#N)cc2)n1 0.02

Query IC50 for COCCNc1cc(Oc2c(C)cc(/C=C/C#N)cc2C)cc(Nc2ccc(C#N)cc2)n1 18.1

Please list IC50 recorded for the compound Cc1cc(/C=C/C#N)cc(C)c1Oc1cc(NC2CC2)nc(Nc2ccc(C#N)cc2)n1 0.24

Identify measured IC50 corresponding to Cc1cc(/C=C/C#N)cc(C)c1Oc1cc(NCCN2CCN(C)CC2)nc(Nc2ccc(C#N)cc2)c1 6.24

Fill in reported IC50 for this entry: Cc1cc(/C=C/C#N)cc(C)c1Oc1cc(NCCCN2CCOCC2)nc(Nc2ccc(C#N)cc2)c1 7.8

Answer with the recorded IC50 for the compound listed here: Cc1cc(/C=C/C#N)cc(C)c1Oc1cc(NCCN(C)C)nc(Nc2ccc(C#N)cc2)c1 2.47

Return the recorded IC50 value; entry: Cc1cc(/C=C/C#N)cc(C)c1Oc1cc(NCCN2CCNCC2)nc(Nc2ccc(C#N)cc2)n1 1.12

====

# experimental.target: Human immunodeficiency virus type 1 reverse transcriptase (Human immunodeficiency virus 1, UniProt Q72547)
Please go through the items and note down their pIC50.
// field semantics: pIC50 = negative decimal log of concentration (mol/L)

Query pIC50 for Cc1cc(/C=C/C#N)cc(C)c1Oc1cc(NCCC#N)nc(Nc2ccc(C#N)cc2)n1 7.70

Answer with the recorded pIC50 for the compound listed here: Cc1cc(/C=C/C#N)cc(C)c1Oc1cc(NCCN2CCNCC2)nc(Nc2ccc(C#N)cc2)n1 6.36

Indicate its recorded pIC50; the compound in question is COCCNc1cc(Oc2c(C)cc(/C=C/C#N)cc2C)nc(Nc2ccc(C#N)cc2)n1 7.40

Tell me pIC50 reported for COCCNc1cc(Oc2c(C)cc(/C=C/C#N)cc2C)cc(Nc2ccc(C#N)cc2)n1 6.04

Give reported pIC50 value for Cc1cc(/C=C/C#N)cc(C)c1Oc1cc(Nc2ccc(C#N)cc2)nc(NC2CC2)c1 6.46

Report pIC50, nothing else, for this compound: Cc1cc(/C=C/C#N)cc(C)c1Oc1cc(NCCN2CCOCC2)nc(Nc2ccc(C#N)cc2)c1 6.13

Item Cc1cc(/C=C/C#N)cc(C)c1Oc1cc(Cl)nc(Nc2ccc(C#N)cc2)c1 : provide pIC50 6.74

Assign pIC50 to the following record: Cc1cc(/C=C/C#N)cc(C)c1Oc1cc(NCCN(C)C)nc(Nc2ccc(C#N)cc2)n1 8.00

State its pIC50: Cc1cc(/C=C/C#N)cc(C)c1Oc1cc(NCCN2CCOCC2)nc(Nc2ccc(C#N)cc2)n1 6.85
